Target: human FP receptor (Homo sapiens (Human))
Sequence (P43088 whole entry): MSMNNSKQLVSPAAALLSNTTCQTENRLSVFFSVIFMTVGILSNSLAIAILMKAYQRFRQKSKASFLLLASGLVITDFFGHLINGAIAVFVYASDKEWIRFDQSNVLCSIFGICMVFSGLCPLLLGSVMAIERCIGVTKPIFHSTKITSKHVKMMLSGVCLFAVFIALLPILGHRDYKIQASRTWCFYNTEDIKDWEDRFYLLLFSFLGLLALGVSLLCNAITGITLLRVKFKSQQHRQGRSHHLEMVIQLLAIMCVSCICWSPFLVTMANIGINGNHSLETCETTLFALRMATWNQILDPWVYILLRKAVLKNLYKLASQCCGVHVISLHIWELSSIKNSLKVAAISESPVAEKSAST
Experiment: In vitro test of inhibition of human FP receptor activity (PGF2α-induced calcium flux in FP-expressing CHEM1 cells)
Conditions: PGF2α-induced (3 nM) calcium flux, some as mean values from multiple independent determinations
pIC50: −log10 of the molar value.
Threshold rule: pIC50 greater than or equal to 7 is 1; below that, 0.

// known answers, use as guide
INSERT INTO results (compound, label_value) VALUES
  ('Cc1c(-c2ccccc2)nc2ccc(SC(F)(F)F)cc2c1C(=O)NC12CCC(C(=O)O)(CC1)CC2', 0),
  ('Cc1c(-c2ccccc2)nc2ccc([Si](C)(C)C)cc2c1C(=O)NC12CCC(C(=O)O)(CC1)CC2', 0),
  ('Cc1c(-c2ccccc2)nc2ccc(Br)cc2c1C(=O)N[C@@H]1[C@@H]2CC[C@H]1C[C@H](C(=O)O)C2', 0);

hey, is pIC50 for this one >= 7? Cc1c(-c2ccccc2)nc2ccc(Br)cc2c1C(=O)NC12C3C4C1C1C2C3C41C(=O)O (stereo not drawn) 0

hey, is pIC50 for this one >= 7? `O=C(NC12CCC(C(=O)O)(CC1)CC2)c1c(Cl)c(-c2ccccc2)nc2ccc(Br)cc12` 1

hey, is pIC50 for this one >= 7? `Cc1c(-c2ccccc2)nc2ccc(Cl)cc2c1C(=O)NC12CCC(C(=O)O)(CC1)CC2` 0

hey, is pIC50 for this one >= 7? `Cc1c(-c2ccccc2)nc2ccc(C(F)F)cc2c1C(=O)NC12CCC(C(=O)O)(CC1)CC2` 0

hey, is pIC50 for this one >= 7? `Cc1ccc(-c2nc3ccc(Br)cc3c(C(=O)NC34CCC(C(=O)O)(CC3)CC4)c2C)s1` 0
